These measurements were taken from patent US12516056B2.

// reported IC50 for each item listed
biological target: Recombinant JAK1 (Homo sapiens); construct: purchased Carna Biosciences; assay: JAK biochemical assay (LANCE Ultra TR-FRET), JAK1; details: recombinant JAK1, TR-FRET; read-out: Biochemical Assay (μM) JAK1
Sequence (P23458 whole entry): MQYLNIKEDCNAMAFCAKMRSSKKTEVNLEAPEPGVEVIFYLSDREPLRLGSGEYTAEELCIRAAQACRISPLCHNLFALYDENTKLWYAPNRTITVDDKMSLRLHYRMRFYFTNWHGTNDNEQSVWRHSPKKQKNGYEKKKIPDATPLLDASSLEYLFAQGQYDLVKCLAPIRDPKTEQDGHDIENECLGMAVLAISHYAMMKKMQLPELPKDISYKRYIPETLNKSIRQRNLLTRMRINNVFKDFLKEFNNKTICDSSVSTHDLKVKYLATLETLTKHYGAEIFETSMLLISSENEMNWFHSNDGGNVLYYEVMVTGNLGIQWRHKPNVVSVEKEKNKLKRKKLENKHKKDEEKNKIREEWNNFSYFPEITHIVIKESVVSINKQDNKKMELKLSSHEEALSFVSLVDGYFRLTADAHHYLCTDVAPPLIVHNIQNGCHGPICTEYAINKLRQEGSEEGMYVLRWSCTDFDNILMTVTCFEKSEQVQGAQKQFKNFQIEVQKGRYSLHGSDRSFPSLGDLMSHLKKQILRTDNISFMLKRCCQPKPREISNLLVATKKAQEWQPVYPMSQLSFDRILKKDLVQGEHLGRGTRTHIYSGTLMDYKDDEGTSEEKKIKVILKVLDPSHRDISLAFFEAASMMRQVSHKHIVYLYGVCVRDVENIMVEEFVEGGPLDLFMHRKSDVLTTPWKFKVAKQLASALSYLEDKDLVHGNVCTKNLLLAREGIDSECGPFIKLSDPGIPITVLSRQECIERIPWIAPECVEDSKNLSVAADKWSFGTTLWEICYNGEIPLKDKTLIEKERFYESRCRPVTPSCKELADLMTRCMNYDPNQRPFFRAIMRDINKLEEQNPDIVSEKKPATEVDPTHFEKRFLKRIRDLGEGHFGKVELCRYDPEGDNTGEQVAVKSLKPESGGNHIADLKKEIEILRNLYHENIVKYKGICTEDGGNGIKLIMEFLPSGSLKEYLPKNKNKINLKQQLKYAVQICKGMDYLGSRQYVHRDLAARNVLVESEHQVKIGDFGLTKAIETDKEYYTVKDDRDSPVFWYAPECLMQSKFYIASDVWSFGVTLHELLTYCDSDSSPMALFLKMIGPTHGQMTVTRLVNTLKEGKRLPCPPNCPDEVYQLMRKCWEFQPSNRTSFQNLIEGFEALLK

The following compounds have reported results that may help.
N#CCCC(O)(c1ccc(-n2cc(-c3ccnc4[nH]cnc34)cn2)nc1)C(F)(F)F (stereo not shown) = < 0.1 µM
CC1(C)CN(C(=O)Nc2ccc(-c3ccnc4[nH]c(=O)[nH]c34)cc2)C1 = > 0.5 µM

Which IC50 value is on record for N#CCC(C1CCCC1)n1cc(-c2ccnc3[nH]c(-c4ccccc4)nc23)cn1 (stereo not shown) ?
< 1 µM

Which IC50 value is on record for CN1CCC(C(O)c2ccc(-n3cc(-c4ccnc5[nH]cnc45)cn3)nc2)CC1 (stereo not shown) ?
> 1 µM

* * *

biological target: Recombinant JAK1 (Homo sapiens); construct: purchased Carna Biosciences; experiment: JAK biochemical assay (LANCE Ultra TR-FRET), JAK1; details: recombinant JAK1, TR-FRET; read-out: Biochemical Assay (μM) JAK1
// reported IC50 for each item listed

The following compounds have reported results that may help.
CS(=O)(=O)CC[C@@H](c1ccc(-n2cc(-c3ccnc4[nH]cnc34)cn2)nc1)C(F)(F)F = < 0.1 µM
CC(C)N1CCC(C(O)(c2ccc(-n3cc(-c4ccnc5[nH]cnc45)cn3)nc2)C(F)(F)F)CC1 (stereo not shown) = > 0.01 µM
FC(F)(F)C(c1ccc(-n2cc(-c3ccnc4[nH]cnc34)cn2)nc1)C1COC1 (stereo not shown) = < 0.1 µM

Switching to the query record.
Which IC50 value is on record for CS(=O)(=O)CCC(O)(c1ccc(-n2cc(-c3ccnc4[nH]cnc34)cn2)nc1)C(F)(F)F (stereo not shown) ?
0.002 µM

* * *

target: Recombinant JAK1 (Homo sapiens); construct: purchased Carna Biosciences; assay: JAK biochemical assay (LANCE Ultra TR-FRET), JAK1; settings: recombinant JAK1, TR-FRET; read-out: Biochemical Assay (μM) JAK1
OBSERVABLE: IC50

The following molecules have reported results that may help.
c1cc(-c2cnn(-c3ccc(CC4COC4)cn3)c2)c2nc[nH]c2n1 = < 0.5 µM
O=C(NC1CCS(=O)(=O)CC1)N1CCN(c2ccnc3[nH]c(=O)[nH]c23)CC1 = > 10 µM
N#CC(NC(=O)n1cc(-c2ccnc3[nH]c(=O)[nH]c23)cn1)C1CCCC1 (centres unmarked) = > 0.5 µM
CS(=O)(=O)CCC(c1ccc(-n2cc(-c3ccnc4[nH]c(=O)[nH]c34)cn2)nc1)C(F)(F)F (centres unmarked) [Example 1147] = > 0.5 µM
N#CC1CN(C(=O)c2ccc(-n3cc(-c4ccnc5[nH]cnc45)cn3)nc2)C1 = > 0.5 µM

Which IC50 value is on record for N#CCC(=O)NC(c1ccc(-n2cc(-c3ccnc4[nH]cnc34)cn2)nc1)C(F)(F)F (centres unmarked) ?
< 0.1 µM

Which IC50 value is on record for OC(c1ccc(-n2cc(-c3ccnc4[nH]cnc34)cn2)nc1)(C1CCNCC1)C(F)(F)F (centres unmarked) ?
< 0.1 µM

Which IC50 value is on record for N#CCC(NC(=O)n1cc(-c2ccnc3[nH]c(=O)[nH]c23)cn1)C1CCOCC1 (centres unmarked) ?
< 0.5 µM
